assayed_target: T1, Biotin-labeled CD3 epsilon peptide antigen (human, also: biotin-labeled, site not given here)
T1 construct: also called CD3 peptide
T1 peptide: QDGNEEMGGITQTPY
protocol_description: bead ELISA, IgG on biotinylated CD3 epsilon peptide, luminescence
Where no end group is shown, it is not given here.
RLU values by entry
Number in RLU, nothing else.

INSERT INTO assay_data (binder, measured_parameter, val) VALUES
  ('DADU01_3#018 (antibody, V domains shown, Human IgG1; light chain GLS3000 (kappa); also called dBBDu123) VH: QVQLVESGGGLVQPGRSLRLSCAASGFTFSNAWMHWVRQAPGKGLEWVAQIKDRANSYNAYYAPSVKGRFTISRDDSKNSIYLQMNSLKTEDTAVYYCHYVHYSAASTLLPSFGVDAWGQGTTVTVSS VL: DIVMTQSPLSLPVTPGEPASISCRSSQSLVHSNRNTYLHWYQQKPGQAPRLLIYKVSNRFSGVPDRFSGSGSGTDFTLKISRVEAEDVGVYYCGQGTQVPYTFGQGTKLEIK', 'RLU', 182000);

Alright, here's another binder for you.
input: What does the record list as RLU for DXDU01_3#094 (antibody, V domains shown, Human IgG1; light chain GLS3000 (kappa); also called dBBDu121) VH: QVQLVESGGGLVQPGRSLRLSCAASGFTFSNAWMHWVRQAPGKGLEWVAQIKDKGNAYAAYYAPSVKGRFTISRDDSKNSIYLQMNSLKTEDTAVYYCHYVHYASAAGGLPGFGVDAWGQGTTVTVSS VL: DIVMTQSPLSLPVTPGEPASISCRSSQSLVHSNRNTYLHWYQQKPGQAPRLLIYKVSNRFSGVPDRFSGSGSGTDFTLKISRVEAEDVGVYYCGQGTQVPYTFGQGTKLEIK ?
output: 165000
